assay_system: Bromodomain testis-specific protein (Homo sapiens, UniProt Q58F21)
test_name: Binding affinity to human partial length BRDT bromodomain 1 isoform b (N21 to E137 residues) expressed in bacterial expression system by bromoscan assay
metric: Kd (µM)

• Cc1nnc2n1-c1ccc(-c3cnn(C)c3)cc1[C@H](Nc1ccc(Cl)cc1)CC2 = 0.064

###

Readings of pKi for the listed compounds
assay_system: Bromodomain-containing protein 4 (Homo sapiens, UniProt O60885)
test_name: Binding affinity to human recombinant BRD4 BD1 (44 to 168 residues) by fluorescence polarization assay
pKi: −log10 of the molar value.
metric: pKi

* Cc1nnc2n1-c1ccc(-c3ccc(N)nc3)cc1C(Nc1ccc(Cl)cc1)CC2 (stereo unspecified) | 6.20
* COc1ccc(NC2CCc3nnc(C)n3-c3ccc(-c4ccc(N)nc4)cc32)cc1 (stereo unspecified) | 5.72
* Cc1nnc2n1-c1ccc(-c3ccc(N)nc3)cc1C(Nc1nn(C)c3ccccc13)CC2 (stereo unspecified) | 4.97
* Cc1nnc2n1-c1ccc(-c3cn[nH]c3)cc1C(Nc1ccc(Cl)cc1)CC2 (stereo unspecified) | 6.90
* Cc1nnc2n1-c1ccc(-c3ccc(N(C)C)cc3)cc1C(Nc1ccc(Cl)cc1)CC2 (stereo unspecified) | 6.33
* Cc1nnc2n1-c1ccc(-c3cnoc3)cc1C(Nc1ccc(Cl)cc1)CC2 (stereo unspecified) | 6.63
* Cc1nnc2n1-c1ccc(-c3ccc4c(c3)CCC(=O)N4)cc1C(Nc1ccc(Cl)cc1)CC2 (stereo unspecified) | 6.51
* Cc1nnc2n1-c1ccc(-c3cnn(C)c3)cc1C(Nc1ccc3ccccc3c1)CC2 (stereo unspecified) | 6.38
* Cc1nnc2n1-c1ccc(NC(=O)C3CCN(C)CC3)cc1C(Nc1ccc(Cl)cc1)CC2 (stereo unspecified) | 5.83
* Cc1nnc2n1-c1ccc(-c3cncs3)cc1C(Nc1ccc(Cl)cc1)CC2 (stereo unspecified) | 6.58
* Cc1nnc2n1-c1ccc(-c3ccc(N)nc3)cc1C(Nc1ccc(C(F)(F)F)cc1)CC2 (stereo unspecified) | 6.24
* Cc1nnc2n1-c1ccc(-c3ccc(N)nc3)cc1C(Nc1cc(C3CC3)nn1C)CC2 (stereo unspecified) | 5.71
* Cc1nnc2n1-c1ccc(-c3ccc(CCCN4CCN(C)CC4)cc3)cc1C(Nc1ccc(Cl)cc1)CC2 (stereo unspecified) | 7.09
* Cc1nnc2n1-c1ccc(-c3ccc(N)nc3)cc1C(Nc1ccc(C#N)cc1)CC2 (stereo unspecified) | 6.29
* Cc1nnc2n1-c1ccc(-c3cnn(C)c3)cc1C(Nc1cccc3ccccc13)CC2 (stereo unspecified) | 6.53

###

assay_system: Bromodomain testis-specific protein (Homo sapiens, UniProt Q58F21)
test_name: Binding affinity to human partial length BRDT bromodomain 2 isoform b (K250 to E382 residues) expressed in bacterial expression system by bromoscan assay
pKd: −log10 of the molar value.
metric: pKd

• Cc1nnc2n1-c1ccc(-c3cnn(C)c3)cc1[C@H](Nc1ccc(Cl)cc1)CC2 = 8.52

###

This listing pairs compounds with measured pIC50.
Test system: MV4-11
test_name: Antiproliferative activity against human MV4-11 cells assessed as cell growth inhibition after 4 days by CCK8 assay
Format: functional, cell-based
particulars: MV4-11, 96 h
pIC50: −log10 of the molar value.
metric: pIC50

• Cc1nnc2n1-c1ccc(-c3ccc(CCCN4CCN(C)CC4)cc3)cc1C(Nc1ccc(Cl)cc1)CC2 (stereo not drawn) = 6.90
• Cc1nnc2n1-c1ccc(-c3cn[nH]c3)cc1C(Nc1ccc(Cl)cc1)CC2 (stereo not drawn) = 7.00
• Cc1nnc2n1-c1ccc(-c3cnc(N)nc3)cc1C(Nc1ccc(Cl)cc1)CC2 (stereo not drawn) = 6.40
• Cc1nnc2n1-c1ccc(-c3ccc(N4CCN(C)CC4)cc3)cc1C(Nc1ccc(Cl)cc1)CC2 (stereo not drawn) = 7.15
• Cc1nnc2n1-c1ccc(-c3cncs3)cc1C(Nc1ccc(Cl)cc1)CC2 (stereo not drawn) = 6.43
• Cc1nnc2n1-c1ccc(N)cc1C(Nc1ccc(Cl)cc1)CC2 (stereo not drawn) = 5.36
• Cc1nnc2n1-c1ccc(-c3ccc4c(c3)CCC(=O)N4)cc1C(Nc1ccc(Cl)cc1)CC2 (stereo not drawn) = 6.84
• Cc1nnc2n1-c1ccc(-c3cnoc3)cc1C(Nc1ccc(Cl)cc1)CC2 (stereo not drawn) = 5.18
